Hello, the source for this data is PubChem BioAssay AID818, in case you need it.

Quick reference: viability of the listed items.
# assay-comment: primary screen for suppressors of beta-catenin knockout HCT116 cell growth, colon tumor, human (AID 818);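 also: 0% = Hyamine 1622 control at 20 µM and 100% = untreated cell control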
# run-parameters: CellTiter-Glo, 60 h, at 10 µM, hits give low values
Out of some 140,000 compounds screened, about 2,100 (1.5%) were called active. The list comes from a sample in which actives are over-represented; it also holds close analogues and randomly drawn compounds.
All answers are understood in %, so give the number only.

Consider the reported viability for these molecules:
| molecule | viability / % |
| --- | --- |
| S=c1[nH]nc(-c2cccnc2)n1/N=C/C(Cl)=C\c1ccccc1 | 10.2 |
| CCOc1ccc2nc(Cl)c(C3CC(c4ccccc4)=NN3C(=O)c3cccs3)cc2c1 (stereo not given) | 1.68 |
| C/C(=N\N1CCN(Cc2ccc(C)cc2)CC1)c1ccco1 | 99.1 |
| Cc1cc(Br)ccc1SCC(=O)OCC(=O)NCc1ccc2c(c1)OCO2 | 85.9 |
| CN(C)S(=O)(=O)c1cccc(C(=O)Nc2cccnc2)c1 | 97.9 |
| Cc1ccc(S(=O)(=O)c2ccc(Cl)cc2)cc1S(=O)(=O)NC(C(=O)O)C(C)C (stereo not given) | 97.6 |

Challenge: Consider the molecule Cc1cc2oc(=O)cc(CN3CCN(S(=O)(=O)c4cccs4)CC3)c2cc1C(C)C and give its measured viability.
Response given: 76.9

Challenge: Consider the molecule Cc1cccc(NC(=O)NC(=S)NC(=O)c2ccccc2)c1 and give its measured viability.
Response given: 102

Challenge: Consider the molecule Clc1cccc(CN2COc3c(cc(Cl)c4cccnc34)C2)c1 and give its measured viability.
Response given: 3.67

Challenge: Consider the molecule Cc1cc(-c2n[nH]c(=S)n2/N=C/C(Br)=C/c2ccccc2)n[nH]1 and give its measured viability.
Response given: 2.95

* * *

# assay-comment: primary screen for suppressors of beta-catenin knockout HCT116 cell growth, colon tumor, human (AID 818);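 also: 0% = Hyamine 1622 control at 20 µM and 100% = untreated cell control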
# run-parameters: CellTiter-Glo, 60 h, at 10 µM, hits give low values
Hit rate of the full screen: of about 140,000 compounds, about 2,100 (1.5%) were called active. The sample holds actives, similar compounds and a random draw of the others, so the mix is not that of the screen.
Quick reference: viability of the listed items.

Consider the reported viability for these compounds:
| compound | result |
| --- | --- |
| O=C1/C(=C\c2cccnc2)CN(Cc2ccccc2)C/C1=C\c1cccnc1 | 5.51% (active) |
| O=C(NCc1ccc2c(c1)OCO2)c1ccc2c(c1)C(=O)N(CC1CCCO1)C2=O (stereo not drawn) | 1.74% (active) |
| O=C(/C=C/c1ccccc1)c1ccccc1O | 83.6% (inactive) |
| N=c1c2c(-c3ccccc3)c(-c3ccccc3)oc2ncn1Cc1ccco1 | 59.7% (inactive) |

Challenge: Consider the compound CC1CCN(c2ccc(C(=O)NCc3ccc4c(c3)OCO4)cc2[N+](=O)[O-])CC1 and give its measured viability.
Response given: 94.5% (inactive)

Challenge: Consider the compound O=C1OC(c2ccc(Cl)cc2)=N/C1=C\c1cccnc1 and give its measured viability.
Response given: 95.6% (inactive)

Challenge: Consider the compound Cc1c(Cl)c([N+](=O)[O-])nn1CCCC(=O)Nc1cc(Cl)ccc1Cl and give its measured viability.
Response given: 91.2% (inactive)

Challenge: Consider the compound Cc1ccnc(NS(=O)(=O)c2ccc(NC(=O)c3ccc(S(=O)(=O)N4CCOCC4)cc3)cc2)n1 and give its measured viability.
Response given: 97% (inactive)
